Measurement target: T1, recombinant human LY6H-ECD (C-terminal histidine tag) (human, UniProt O94772 26-115)
T1 construct: The ectodomain was cloned by PCR with a non-native signal peptide and a C-terminal histidine tag; also called recombinant LY6H; hLY6H-ECD; not shown: C-terminal histidine tag
T1 sequence (looked up): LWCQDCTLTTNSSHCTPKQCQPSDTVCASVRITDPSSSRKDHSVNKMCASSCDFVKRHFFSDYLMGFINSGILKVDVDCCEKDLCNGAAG
Test description: Octet Red BLI, antibody on Protein A biosensor, recombinant human LY6H in solution
Procedure: Affinity: The affinity of antibodies to various recombinant LY6H protein was determined on an Octet Red™ instrument. After loading reagents into a 96-well plate, the Octet Red with Protein A-conjugated biosensors was programmed as follows: 30 seconds for baseline #1; 120 seconds to immobilize the antibody; 30 seconds for baseline #2; 300 seconds for association of antibody to recombinant LY6H; and 300-600 seconds for dissociation of recombinant LY6H from the antibody.
Parameter Kd: see the listing below.
Quantity name: Kd (nM)

binder="6D11-41B4 (antibody, V domains shown) VH: QVQLQQWGAGLFKPSETLSLTCAVYGGSFSGSLWSWIRQPPGKGLEWIGEINHAGSTQYTPSLKSRVTISVDTSKNQFSLKLTSVTAADTAVYYCARGRHIVVVTAIHSPFDYWGQGTLVTVSS VL: DIQMTQSPSSLSASVGDRVTITCRASQGISNYLAWYQQKPGKVPKLLIFAASTLQSGVPSRFSGSGSGTDFTLTISSLQPEDVATYYCQKYNSAPRTFGQGTKLEIK" unit_tag=nM result_number=25
binder="6D11 (antibody, V domains shown, Recombinant antibody made in CHO cells; also called 6D11_25D6) VH: QVQLQQWGAGLFKPSETLSLTCAVYGGSFSGSLWSWIRQPPGKGLEWIGEINHSGSTNYTPSLKSRVTISVDTSKNQFSLKLTSVTAADTAVYYCARGRHIVVVTAIHSPFDYWGQGTLVTVSS VL: DIQMTQSPSSLSASVGDRVTITCRASQGISNYLAWYQQKPGKVPKLLIFAASTLQSGVPSRFSGSGSGTDFTLTISSLQPEDVATYYCQKYNSAPRTFGQGTKLEIK" unit_tag=nM result_number=22
binder="10B10-S54A (antibody, V domains shown) VH: QVQLQQWGAGLLKPSETLSLTCAVYGGSFSGYYWHWIRQPPGKGLEWIGEINHAESTKYNPSLKSRVTISVDTSKNQFSLKLSSVTGADTAVYYCARGQHIVVVTDSLGDYWGQGTLVTVSS VL: DIQMTQSPSSLSASVGDRVTITCRASQGISNYLAWYQQKPGKVPKLLIYAASTLQSGVPSRFSGSGSGTDFTLTISSLQPEDVATYYCQKYNSAPRTFGQGTKLEIK" unit_tag=nM result_number=42
binder="10B10 (antibody, V domains shown, also called 10B10_25A1) VH: QVQLQQWGAGLLKPSETLSLTCAVYGGSFSGYYWHWIRQPPGKGLEWIGEINHSESTKYNPSLKSRVTISVDTSKNQFSLKLSSVTGADTAVYYCARGQHIVVVTDSLGDYWGQGTLVTVSS VL: DIQMTQSPSSLSASVGDRVTITCRASQGISNYLAWYQQKPGKVPKLLIYAASTLQSGVPSRFSGSGSGTDFTLTISSLQPEDVATYYCQKYNSAPRTFGQGTKLEIK" unit_tag=nM result_number=47
